Tested on: HCT116 cells
Assay: MTS cell viability assay, HCT116
Assay type: cell-based
Details: Homo sapiens, HCT-116; 72 h; mean ± SD (n = 3); Table 5; read-out: MTS cell viability IC50, Wnt hyperactive cancer cells HCT116
ENDPOINT_NAME: IC50

Cc1ccc(CCc2c(-c3ccsc3)n(CCc3nn[nH]n3)c3ccc(C(=O)NO)cc23)cc1 [Compound 90] | 133 µM
Cc1ccc(CCc2c(-c3ccsc3)n(CCc3nn[nH]n3)c3ccc(C(=O)O)cc23)cc1 [Compound 78] | > 400 µM
COc1ccc2sc(CCc3c(CCc4ccc(Cl)cc4)c4cc(C(=O)NCc5ccon5)ccc4n3CCc3nn[nH]n3)nc2c1 [Compound 62] | 28 µM
O=C(NCc1ccc(Cl)cc1)c1ccc2c(c1)c(CCc1ccc(F)cc1)c(CCc1nc3ccccc3s1)n2CCc1nn[nH]n1 [Compound 45] | 12 µM
COc1ccc2sc(CCc3c(CCc4ccc(Cl)cc4)c4cc(C(=O)NCc5ccno5)ccc4n3CCc3nn[nH]n3)nc2c1 [Compound 61] | 40 µM

Would you kindly look at the next entry?
Query the reported IC50 for HCT116 cells; item: COc1ccc2sc(CCc3c(CCc4ccc(Cl)cc4)c4cc(C(=O)NCc5ccncc5)ccc4n3CCc3nn[nH]n3)nc2c1 [Compound 56]
23 µM
